testProtocol: Selectivity index, ratio of IC50 for African green monkey Vero cells to MIC99 for Mycobacterium tuberculosis mc2 6230
Type: toxicity
testSettings: read-out: Selectivity Index
outcomeMeasure: selectivity ratio
Give your answer as a number; write no unit.

# lookup: selectivity ratio of "O=C(NCCCNc1ccnc2cc(Cl)ccc12)c1ccc2c(c1)C(=O)N(NC(=O)c1ccncc1)C2=O"
27

Quick one: selectivity ratio of "O=C(NNC(=O)c1ccc2c(c1)C(=O)N(CCCCCCNc1ccnc3cc(Cl)ccc13)C2=O)c1ccncc1" ?
5.8

Param item = "O=C(NNC(=O)c1ccc2c(c1)C(=O)N(CCCNc1ccnc3cc(Cl)ccc13)C2=O)c1ccncc1" ; retrieve measured selectivity ratio.
2.5

May I ask what selectivity ratio has been recorded for "O=C(O)c1ccc2c(c1)C(=O)N(CCCNc1ccnc3cc(Cl)ccc13)C2=O" ?
0.5

// lookup selectivity ratio for "O=C(O)c1ccc2c(c1)C(=O)N(CCCCNc1ccnc3cc(Cl)ccc13)C2=O"
0.16

For the compound shown here, "O=C(NCCCCCCNc1ccnc2cc(Cl)ccc12)c1ccc2c(c1)C(=O)N(NC(=O)c1ccncc1)C2=O" , give the reported selectivity ratio.
3

* * *

targetOrSystem: Enoyl-[acyl-carrier-protein] reductase [NADH] (Mycobacterium tuberculosis) (UniProt P9WGR1)
Sequence (P9WGR1 whole entry): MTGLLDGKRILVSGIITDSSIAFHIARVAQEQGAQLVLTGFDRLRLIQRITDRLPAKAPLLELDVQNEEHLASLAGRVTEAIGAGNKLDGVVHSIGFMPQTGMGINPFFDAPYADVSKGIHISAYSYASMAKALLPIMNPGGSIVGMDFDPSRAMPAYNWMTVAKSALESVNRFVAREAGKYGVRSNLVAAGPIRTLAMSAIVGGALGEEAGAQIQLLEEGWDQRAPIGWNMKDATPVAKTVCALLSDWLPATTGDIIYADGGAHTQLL
testProtocol: Inhibition of Mycobacterium tuberculosis mc2 6230 InhA assessed as antimycobacterial activity by measuring minimum inhibitory concentration required to inhibit 99% of bacterial growth
outcomeMeasure: MIC99 (µM)
Give your result in µM as a bare value.

I would be grateful if you could share the reported MIC99 for "O=C(NCCCCNc1ccnc2cc(Cl)ccc12)c1ccc2c(c1)C(=O)N(NC(=O)c1ccncc1)C2=O" .
23

Look up MIC99 for this compound: "O=C(NN1C(=O)c2ccc(N3CCN(c4ccnc5cc(Cl)ccc45)CC3)cc2C1=O)c1ccncc1"
6

For the compound shown here, "O=C(NNC(=O)c1ccc2c(c1)C(=O)N(CCCCNc1ccnc3cc(Cl)ccc13)C2=O)c1ccncc1" , give the reported MIC99.
23

Entry under review: "NNC(=O)c1ccncc1" . Reported MIC99?
0.07

Can you share its MIC99? I mean this compound: "O=C(NCCCCCCNc1ccnc2cc(Cl)ccc12)c1ccc2c(c1)C(=O)N(NC(=O)c1ccncc1)C2=O"
11

Need MIC99 of "O=C(O)c1ccc2c(c1)C(=O)N(CCCNc1ccnc3cc(Cl)ccc13)C2=O" , thanks.
489

Quick one: MIC99 for "O=C(NCCCNc1ccnc2cc(Cl)ccc12)c1ccc2c(c1)C(=O)N(NC(=O)c1ccncc1)C2=O" ?
5.8

Form field: reported MIC99 of "O=C(NNC(=O)c1ccc(N2C(=O)c3ccccc3C2=O)cc1)c1ccncc1"
129

I would be grateful if you could share the reported MIC99 for "O=C(O)c1ccc2c(c1)C(=O)N(CCCCCCCCNc1ccnc3cc(Cl)ccc13)C2=O" .
417

Any idea what its MIC99 is? The compound is "O=C(NCCNc1ccnc2cc(Cl)ccc12)c1ccc2c(c1)C(=O)N(NC(=O)c1ccncc1)C2=O"
6

Endpoint output: MIC99 of "O=C(O)c1ccc2c(c1)C(=O)N(CCCCNc1ccnc3cc(Cl)ccc13)C2=O" . Value?
236

Would you kindly share the measured MIC99 for "O=C(NNC(=O)c1ccc2c(c1)C(=O)N(CCCCCCCCNc1ccnc3cc(Cl)ccc13)C2=O)c1ccncc1" ?
5.1

MIC99 for "O=C(O)c1ccc2c(c1)C(=O)N(CCCCCCNc1ccnc3cc(Cl)ccc13)C2=O" ?
222

State the recorded MIC99 for this entry: "O=C(NN1C(=O)c2ccc(C(=O)OCCCNc3ccnc4cc(Cl)ccc34)cc2C1=O)c1ccncc1"
11.9

May I ask what MIC99 has been recorded for "O=C(NCCCCCCCCNc1ccnc2cc(Cl)ccc12)c1ccc2c(c1)C(=O)N(NC(=O)c1ccncc1)C2=O" ?
5.1

Data request, read-out MIC99, for "O=C(NNC(=O)c1ccc2c(c1)C(=O)N(CCCCCCNc1ccnc3cc(Cl)ccc13)C2=O)c1ccncc1"
21.9

So what's the measured MIC99 for this one? "O=C(CN1C(=O)c2ccccc2C1=O)NNC(=O)c1ccncc1"
308

What does the record list as MIC99 for "O=C(NNC(=O)c1ccc2c(c1)C(=O)N(CCCNc1ccnc3cc(Cl)ccc13)C2=O)c1ccncc1" ?
47.3

What MIC99 value was documented for this compound, "O=C(NNC(=O)c1ccc2c(c1)C(=O)N(CCNc1ccnc3cc(Cl)ccc13)C2=O)c1ccncc1" ?
389

* * *

Consider the following compounds; for each one, report its selectivity ratio.
testProtocol: Selectivity index, ratio of IC50 for African green monkey Vero cells to MIC99 for Mycobacterium tuberculosis mc2 6230
Type: toxicity
testSettings: read-out: Selectivity Index

Quick one: selectivity ratio of "O=C(NCCCCCCCCNc1ccnc2cc(Cl)ccc12)c1ccc2c(c1)C(=O)N(NC(=O)c1ccncc1)C2=O" ?
> 32.7

Suppose we examine the compound "O=C(NN1C(=O)c2ccc(C(=O)OCCCNc3ccnc4cc(Cl)ccc34)cc2C1=O)c1ccncc1" ; what selectivity ratio value has been reported?
> 16

Consider the compound shown here: "O=C(CN1C(=O)c2ccccc2C1=O)NNC(=O)c1ccncc1" What is its recorded selectivity ratio?
> 1
